# assay.comment: NIH3T3 cell viability loss – cherry-pick, single point, cytotoxicity control for T. cruzi proliferation inhibitor project, confirmation (AID 651742);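 also: 0% = median of neutral control wells and 100% = median of positive control wells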
# test.conditions: NIH/3T3 viability, CellTiter-Glo ATP luminescence, 90 h; at 8.35 µM; active compounds read high
Screen size: about 5,600 compounds; about 780 (14%) were called active. Not shown: some 3% with an inconclusive outcome. These entries were drawn from the full list.
# cytotoxicity (signal decrease) per entry
Quick reminder: number only, in %, skip the unit.

Worked set:
                            smiles_notation                observation_type  readout_units  measured
0  COc1ccc(-c2ccc3c(c2)[C@@H]2[C@@H](CCN2C(=O)Cc2ccccn2)[C@H](CO)N3C)cc1  cytotoxicity (signal decrease)              %      3.57
1  O=C(c1ccccn1)N1CC[C@@H]2[C@H]1c1cc(-c3ccccc3)ccc1N[C@@H]2CO  cytotoxicity (signal decrease)              %      3.39
2  O=C(Nc1cc(F)ccc1F)N1CCCCN2[C@H](CO)[C@@H](c3ccc(-c4cncnc4)cc3)[C@H]2C1  cytotoxicity (signal decrease)              %        15

Now examine the next entry.
q: Fill blank: measured cytotoxicity (signal decrease) of the compound COc1ccc(S(=O)(=O)Nc2ccc3c(c2)C(=O)N([C@H](C)CO)C[C@@H](C)[C@@H](CN(C)CC2CCCCC2)OCCCC[C@@H](C)O3)cc1 is ____.
a: 33.5
